- system_tested: Mitochondrial import inner membrane translocase subunit TIM23 (Saccharomyces cerevisiae (strain ATCC 204508 / S288c))
- Sequence (P32897 whole entry): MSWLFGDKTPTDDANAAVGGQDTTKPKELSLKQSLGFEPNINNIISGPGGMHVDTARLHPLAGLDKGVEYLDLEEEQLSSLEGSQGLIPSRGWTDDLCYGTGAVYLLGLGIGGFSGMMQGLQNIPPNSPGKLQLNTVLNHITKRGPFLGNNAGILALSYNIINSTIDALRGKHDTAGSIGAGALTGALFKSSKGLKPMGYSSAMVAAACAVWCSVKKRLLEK
- assay_protocol: analog potency on tim23-1 yeast growth – luminescence, S. cerevisiae, SAR follow-up (AID 602375)
assay_readout: IC50 (µM)
Field format: number, assumed µM, no unit text.

These solved cases illustrate the format of a correct answer.
>  <molecule>
C(=CN=Nc1nc2ccccc2[nH]1)Cc1ccccc1 [MLS000390936]

>  <quantitative_result>
11.2

$$$$
>  <molecule>
Cc1ccc(C2NN=C(c3ccc(Cl)cc3Cl)S2)cc1 (stereo not given) [MLS-0463404.0001]

>  <quantitative_result>
44.3

$$$$

q: Consider the molecule Cc1ccc2nc(-n3c(O)c[nH]c3=S)sc2c1 . State its measured IC50.
a: 50.3
